// compounds with reported Ki on Adenosine receptor A1 (Homo sapiens), multi-publication
Response field label: string, one of 1 (Ki strictly below 100 nM) or -1.

COCCN(C)C(=O)Nc1ncc(-c2ccc3ncnc(C)c3c2)c(-c2ccc(F)cc2)n1 | -1
Nc1nc(-c2ccco2)ncc1C(=O)NCc1ccccc1O | -1
N#Cc1c(-c2ncco2)nn2ccc(NCc3ccccc3)nc12 | -1
Cc1cc(-c2c(-c3cccc(C#N)c3)nn3ccc(C(=O)NCCN4CCN(c5ccccc5)CC4)nc23)cc(Cl)n1 | -1
Cc1cc(-c2c(-c3cccc(C#N)c3)nn3ccc(N[C@@H]4CC[C@@H]4O)nc23)cc(Cl)n1 | -1
Cc1cc(-c2c(-c3cccc(C#N)c3)nn3ccc(NC45CC(O)(C4)C5)nc23)cc(Cl)n1 | 1
N#Cc1cccc(-c2nn3ccc(N)nc3c2-c2ccnnc2)c1 | 1
Cc1cc(-c2c(-c3cccc(C#N)c3)nn3ccc(NCC(C)(C)O)nc23)cc(Cl)n1 | -1
Cc1cc(-c2c(-c3cccc(C#N)c3)nn3ccc(NC4CCS(=O)(=O)CC4)nc23)cc(Cl)n1 | -1
Nc1nc(NCc2cccnc2)nc2sc(-c3ccco3)nc12 | 1

-- ask Would you kindly verify if Ki of Cc1cc(-c2c(-c3cccc(C#N)c3)nn3ccc(C(=O)NS(C)(=O)=O)nc23)cc(Cl)n1 is strictly less than 100 nM?
-- reply -1

###

The entries that follow carry Ki values tested on Adenosine receptor A1 (Homo sapiens), drawn from several published reports.

Cc1cccnc1CNC(=O)c1cnc(-c2cccc(F)c2)nc1N | 49 nM
Cc1cc(-c2c(-c3cccc(C#N)c3)nn3ccc(C(=O)NCC4(O)COC4)nc23)cc(Cl)n1 | 174 nM
N#Cc1c(-c2ccccc2F)nn2ccc(NCc3ccccc3)nc12 | 4 nM
Cc1cc(-c2c(-c3cccc(C#N)c3)nn3ccc(OCC(C)(C)O)nc23)cc(Cl)n1 | 46 nM
Nc1nc(-c2ccco2)ncc1C(=O)NCc1cccc2c1OCO2 | 4790 nM
Cc1cc(-c2c(-c3cccc(C#N)c3)nn3ccc(NC[C@@H]4COCCN4)nc23)cc(Cl)n1 | 522 nM
c1ccc(-c2cc(-c3ccccc3)c3[nH]c(C4CCCCC4)nc3n2)cc1 | 0.9 nM
Nc1nc(NCc2ccsc2)nc2sc(-c3ccco3)nc12 | 8.12 nM
COc1nc(-c2ccco2)nc(N)c1C(=O)NCc1ncccc1C(F)(F)F | 176 nM
CN1CCC[C@@H]1CNc1ccn2nc(-c3ccco3)c(C#N)c2n1 | 1260 nM

Ki of CC(C)n1ncnc1CNC(=O)c1c(N)nc(-c2cccc(C#N)c2)nc1OCCF , assay on Adenosine receptor A1 (Homo sapiens), is 22 nM

Let me check: Nc1nc(-c2ccco2)ncc1C(=O)NCc1ccccc1F , system Adenosine receptor A1 (Homo sapiens), measured Ki is 1760 nM

Value (Ki, Adenosine receptor A1 (Homo sapiens)) for record Cc1cc(-c2c(-c3cccc(C#N)c3)nn3ccc(N4CCC4C(=O)O)nc23)cc(Cl)n1 (stereo not drawn) = 234 nM

The compound N#Cc1cccc(-c2nn3ccc(N4CCN(CCF)CC4)nc3c2C#N)c1 on Adenosine receptor A1 (Homo sapiens): Ki was 2280 nM

Given the compound COc1cccc(CNc2nc(N)c3nc(-c4ccco4)sc3n2)c1 and test system Adenosine receptor A1 (Homo sapiens), the measured Ki is 8.16 nM

GET /values?item= Nc1nc(NCc2cccc(O)c2)nc2sc(-c3ccco3)nc12 &system= Adenosine receptor A1 (Homo sapiens) returns Ki: 27 nM

# lookup: CN1CCN(c2ccn3nc(-c4ccco4)c(C#N)c3n2)CC1 on Adenosine receptor A1 (Homo sapiens), Ki = 426 nM

Lab entry: Adenosine receptor A1 (Homo sapiens) assay, compound Cc1cc(Cl)cc(-c2nnc(NC(=O)N3CCC(N4CCCCC4)CC3)nc2-c2ccc(C)o2)c1 , Ki = 1780 nM

###

Multi-source literature compilation: Ki on Adenosine receptor A1 (Homo sapiens).
Report the figure along with its unit, number first.

CCCC(C(=O)N1CCN(c2ccc(OCCOC)cc2)CC1)n1ncc2c1nc(N)n1nc(-c3ccco3)nc21 (single isomer, unassigned) | 160 nM
Cc1cc(-c2c(-c3cccc(C#N)c3)nn3ccc(NCc4nnc[nH]4)nc23)cc(Cl)n1 | 55 nM
COC1CCN(C(=O)Nc2ncc(-c3ccc4ncnc(C)c4c3)c(-c3ccc(F)cc3)n2)CC1 | 1320 nM
N#Cc1c(-c2ccco2)nn2ccc(N3CCN(CCF)CC3)nc12 | 262 nM

Now look at this one.
Record CCn1nccc1-c1c(-c2cccc(C#N)c2)nn2ccc(NCc3nnc[nH]3)nc12 . Reported Ki: 124 nM

###

Below are Ki values for Adenosine receptor A1 (Homo sapiens, UniProt P30542) collected from several publications.
Return type: number; implicit unit nM.

Cc1cc(-c2cnc(NC(=O)N3C[C@@H](C)O[C@@H](C)C3)nc2-c2ccc(F)cc2)cc(Cl)n1 | 4050
Nc1nc2c(cnn2C(C(=O)N2CCc3ccccc3C2)c2ccccc2)c2nc(-c3ccco3)nn12 (single isomer, unassigned) | 150
Cc1cc(-c2c(-c3cccc(C#N)c3)nn3ccc(N[C@@H]4CCCNC4)nc23)cc(Cl)n1 | 32
Cc1cc(-c2c(-c3cccc(C#N)c3)nn3ccc(C(=O)N[C@@H](C)[C@H](O)CO)nc23)cc(Cl)n1 | 20
CCCC(O)c1nc(N)c2nc(-n3nccn3)n(C)c2n1 (stereo not drawn) | 120
Cc1cc(-c2c(-c3cccc(C#N)c3)nn3ccc(NC(=O)N4CC5(COC5)C4)nc23)cc(C)n1 | 103
Cc1ncnc2ccc(-c3cnc(NC(=O)N4CCO[C@H](C)C4)nc3-c3ccc(F)cc3)cc12 | 411
O=C(Nc1cc(-c2ccccc2)nc(-c2ccccc2)n1)C1CCC1 | 6.49

Lab note: measured Ki of CCCc1nc2c(-c3ccccc3)cc(-c3ccccc3)nc2[nH]1 was 2.45

###

From various publications: pKi for Adenosine receptor A1 (Homo sapiens).
Quick note: pKi means taking -log10 of the concentration in moles per liter.

A selection of reference data follows.
OCc1c(-c2ccco2)nn2ccc(NCc3ccccc3)nc12 | 5.94
Cc1cc(-c2c(-c3cccc(C#N)c3)nn3ccc(C(=O)NCC4(C)NC(=O)NC4=O)nc23)c(F)c(C)n1 (stereo not drawn) | 5.82
Cc1cc(-c2c(-c3cccc(C#N)c3)nn3ccc(C(=O)N[C@@H]4COC[C@@]4(C)O)nc23)cc(C)n1 | 6.55
Cc1cc(Cl)cc(-c2cnc(NC(=O)N3CCC(N4CCCCC4)CC3)nc2-c2ccc(F)cc2)c1 | 5.33
Cc1cc(-c2c(-c3cccc(C#N)c3)nn3ccc(C(=O)NC4CN(C)C4)nc23)cc(Cl)n1 | 6.46

Could you now consider this next molecule?
pKi on Adenosine receptor A1 (Homo sapiens) for Cc1cccnc1CNC(=O)c1c(N)nc(-c2ccco2)nc1OCCN is 7.23
